Tested on: HepG2
Test: Cytotoxicity against human HepG2 cells assessed as reduction in cell viability after 24 hrs by MTT assay
Assay type: cell-based
Settings: hepg2, 24 h
# log10 of MTC values compiled below
Hey, these are logged values: log10 of MTC, µg/mL being the unit before logging.

Look over these answered cases.
CC(C)c1ccc(OCC(=O)NNC(=S)NC(=O)c2nc3ccccc3[nH]2)cc1 | 2.71
CC(C)c1ccc(OCC(=O)NNC(=S)NC(=O)c2ccccc2)cc1 | 2.71
CC(C)c1ccc(OCC(=O)NNC(=S)NC(=O)c2ccc[nH]2)cc1 | 1.20
CC(C)c1ccc(OCC(=O)NNC(=S)NC(=O)/C=C/c2cc3ccccc3o2)cc1 | 2.41
Cc1cc(/C=C(/C#N)C(=O)Nc2cccc(Br)c2)c(C)n1-c1ccc(C(=O)O)cc1 | 1.40

// moving on: another record for log10 of MTC
Request: I would be grateful if you could share the reported log10 of MTC for CC(C)c1ccc(OCC(=O)NNC(=S)NC(=O)c2cc3ccc(Cl)cc3[nH]2)cc1 .
Result: 1.51

----------
Tested on: HepG2
Experiment: Cytotoxicity against human HepG2 cells assessed as reduction in cell viability after 24 hrs by MTT assay
Assay type: cell-based
Settings: hepg2, 24 h
# MTC values compiled below
Express your answer in µg/mL, writing the number without its unit.

Look over these answered cases.
CC(C)c1ccc(OCC(=O)NNC(=S)NC(=O)c2coc3ccccc23)cc1 | 128
CC(C)c1ccc(OCC(=O)NNC(=S)NC(=O)Cc2ccco2)cc1 | 32

Request: Which MTC is reported with HepG2 for this entry: CC(C)c1ccc(OCC(=O)NNC(=S)NC(=O)c2cc3cc(F)ccc3[nH]2)cc1 ?
Result: 256

Request: Which MTC is reported with HepG2 for this entry: CC(C)c1ccc(OCC(=O)NNC(=S)NC(=O)c2cc3ccccc3s2)cc1 ?
Result: 512

----------
Test system: HepG2
Assay: Cytotoxicity against human HepG2 cells assessed as reduction in cell viability after 24 hrs by MTT assay
Assay type: cell-based
Details: hepg2, 24 h
readout_type: MTC

Look over these answered cases.
CC(C)c1ccc(OCC(=O)NNC(=S)NC(=O)c2cc3ccccc3n2C)cc1 | > 256 µg/mL
CC(C)c1ccc(OCC(=O)NNC(=S)NC(=O)c2ccno2)cc1 | > 128 µg/mL
COc1ccc2cc(C(=O)NC(=S)NNC(=O)COc3ccc(C(C)C)cc3)[nH]c2c1 | > 512 µg/mL

// moving on: another record for MTC
Request: I would be grateful if you could share the reported MTC for CC(C)c1ccc(OCC(=O)NNC(=S)NC(=O)c2c[nH]c3ccccc23)cc1 .
Result: > 128 µg/mL

----------
System: HepG2
Experiment: Cytotoxicity against human HepG2 cells assessed as reduction in cell viability after 24 hrs by MTT assay
Type: cell-based
Conditions: hepg2, 24 h
# MTC values compiled below

Look over these answered cases.
CC(C)c1ccc(OCC(=O)NNC(=S)NC(=O)c2ccccn2)cc1 | > 128 µg/mL
CC(C)c1ccc(OCC(=O)NNC(=S)NC(=O)c2ccco2)cc1 | > 128 µg/mL
CC(C)c1ccc(OCC(=O)NNC(=S)NC(=O)c2ccncc2)cc1 | > 512 µg/mL

Request: I would be grateful if you could share the reported MTC for CC(C)c1ccc(OCC(=O)NNC(=S)NC(=O)c2ccc(Br)o2)cc1 .
Result: > 128 µg/mL

Request: I would be grateful if you could share the reported MTC for Cc1ccoc1C(=O)NC(=S)NNC(=O)COc1ccc(C(C)C)cc1 .
Result: > 128 µg/mL

Request: I would be grateful if you could share the reported MTC for CC(C)c1ccc(OCC(=O)NNC(=S)NC(=O)c2ccsc2)cc1 .
Result: > 256 µg/mL
